# Assay Details: NCI Yeast Anticancer Drug Screen. Data for the mgt1 strain (AID 153)
# Assay Conditions: S. cerevisiae mgt1 mutant growth inhibition; at 33.0 µM
This is part of a sample that, as a whole, favours compounds with a hit. Of some 79,000 tested, about 15% had one in any assay. The source made the active and inactive calls. Cut-off read from the data, not from the text of the source: active = growth inhibition above about 70%; inactive = the rest.
Give your call using only these classes: active, inactive

> print(dat)
                           compound  category.label
1  CN(C)C[C@H]1CC[C@@H](CN(C)C)C1=O        inactive

**Q:** Hey, what did the test say about O=C(Cc1csc2[n+]1C(=O)/C(=C/c1ccc(Cl)cc1)S2)Nc1ccccc1 ?
**A:** inactive

**Q:** # outcome recorded in this test, key = C#CCCCc1ccccc1
**A:** inactive

**Q:** Recorded test call requested for NNC(=O)CCc1ccc2ccc3ccccc3c2c1
**A:** inactive

**Q:** Would you mind telling me which call this test gave Cc1ccc(-n2cc(-c3ccc(Cl)cc3)c(C#N)c2N)cc1 ?
**A:** inactive

**Q:** Could you check what this test reported for COC1=CC(=O)C(C2(OC(C)C)OC(=O)C(Cl)=C2Cl)=CC1=O (configuration not stated) ?
**A:** active

**Q:** Call for entry O=C(/C=C\c1ccc(Cl)cc1Cl)c1cccs1 :
**A:** inactive

**Q:** What did this assay record as the result for O=C(CCCN1CCC(O)(c2ccc(Cl)cc2)CC1)c1ccc(F)cc1 ?
**A:** inactive

**Q:** For CC1C(NNc2ccccc2)Oc2cc3c(cc2C1c1ccccc1O)OCO3 (configuration not stated) , what call appears in the results of this test?
**A:** active

**Q:** Field: outcome | Entry: CCC(C(=O)O)C1=C(c2ccccc2)CCc2ccccc21 (configuration not stated)
**A:** active

**Q:** Tell me the assay call for COc1ccc2nc3c([N+](=O)[O-])ccc(NCCN(C)C)c3c(NCCN(C)C)c2c1 please.
**A:** inactive

**Q:** Each compound tested received a call. Report the one for CC(=O)OCC(=O)C1(O)CCC2C3CCC4CCCCC4(C)C3CCC21C (configuration not stated) .
**A:** inactive
